# subject.of.test: native soluble IL-6R in human plasma (human, UniProt P08887)
# method: ELISA 3, periplasmic extract; competitor BN-12; human plasma
Task for the reader: assign each of the following binders its reported OD450 ratio sample/blank.
Number only, no unit.

[in] For the binder shown here, IL6RPMP107A1 (VHH) VHH: EVQLVESGGGLVQAGGSLNLSCNASGDIGSINAMGWYRQAPGQQREWVAVITDTDSTIYPDSVKGRFAISRDGAKNTVHLRMSSLKPEDTAVYYCNAYQAGWGDYWGQGTQVTVSS , give the reported OD450 ratio sample/blank.
[out] 0.967

[in] For the binder shown here, IL6RPMP120A1 (VHH) VHH: EVQLVESGGGLVQAGGSLSLSCATSGRTISDDTMAWFRQAPGKEREFVATITFSGARTHYSDSVRDRFTISRDNAKNTVYLQMNSLKSEDTAVYYCAASTKYYSSTYNYIHPAFYDIWGQGTQVTVSS , give the reported OD450 ratio sample/blank.
[out] 1.01

[in] For the binder shown here, IL6RPMP106B2 (VHH) VHH: EVQLVESGGGLVQAGGSLRLSCAASGSIFRINAMGWYRQAPGKQRELVAAAISGGSTNYADFVKGRFTISRDNAKNTVYLQMNSLKPEDTAVYYCNALVVSHNYSDYVPFPDDYWGQGTQVTVSS , give the reported OD450 ratio sample/blank.
[out] 0.984

[in] For the binder shown here, IL6RPMP120C1 (VHH) VHH: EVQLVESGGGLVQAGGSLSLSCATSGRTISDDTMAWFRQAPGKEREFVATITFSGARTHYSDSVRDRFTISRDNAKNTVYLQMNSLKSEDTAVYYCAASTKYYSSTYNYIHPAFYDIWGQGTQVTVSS , give the reported OD450 ratio sample/blank.
[out] 1.02

[in] For the binder shown here, IL6RPMP107H2 (VHH) VHH: KVQLVESGGGLVQPGGSLRLSCAASGFTFSSYAMSWVRRAPGKGLEWVSAINSDGTGSSYAPFVTGRFTASRDNAKNTLYLQMNSLKPEDTAVYYCTNSNRYDYADFSAVRGQGTQVTVSS , give the reported OD450 ratio sample/blank.
[out] 0.962

[in] For the binder shown here, IL6RPMP101A1 (VHH) VHH: EVQLVESGGGTVQAGGSLKLSCAASGRTFTNYAMGWFRQAPGKEREFVAAIAYATHFADSVKGRFTISRGNAKNTVYLQMNSLKPEDTAVYYCAADLSLSKMVSKITSDMDYWGKGTLVTVSS , give the reported OD450 ratio sample/blank.
[out] 0.989

[in] For the binder shown here, IL6RPMP108D2 (VHH) VHH: EVQLVESGGGLVQAGGSLRLSCAASGFTFDDYDIGWFRQAPGKEREGVSGISSSDGNTYYADSVKGRFTISSDNAKNTVYLQMNSLKPEDTAVYYCAAEPPDSSWYLDGSPEFFKYWGQGTQVTVSS , give the reported OD450 ratio sample/blank.
[out] 0.916

[in] For the binder shown here, IL6RPMP120G6 (VHH) VHH: EVQLVESGGDLVQTGGSLRLSCAASGITVSDRAMGWYRQAPGKQREMVAGVSRGGMTSYADSVKGRLTISRDNAKNSVYLQMNSLNPEDTAVYYCSAYYRYGSSVPQYWGQGTQVTVSS , give the reported OD450 ratio sample/blank.
[out] 0.993
